TEST TARGET: Mu-type opioid receptor (Homo sapiens) + Delta-type opioid receptor (Homo sapiens) (UniProt P35372+P41143)
Sequence (P35372 whole entry, looked up): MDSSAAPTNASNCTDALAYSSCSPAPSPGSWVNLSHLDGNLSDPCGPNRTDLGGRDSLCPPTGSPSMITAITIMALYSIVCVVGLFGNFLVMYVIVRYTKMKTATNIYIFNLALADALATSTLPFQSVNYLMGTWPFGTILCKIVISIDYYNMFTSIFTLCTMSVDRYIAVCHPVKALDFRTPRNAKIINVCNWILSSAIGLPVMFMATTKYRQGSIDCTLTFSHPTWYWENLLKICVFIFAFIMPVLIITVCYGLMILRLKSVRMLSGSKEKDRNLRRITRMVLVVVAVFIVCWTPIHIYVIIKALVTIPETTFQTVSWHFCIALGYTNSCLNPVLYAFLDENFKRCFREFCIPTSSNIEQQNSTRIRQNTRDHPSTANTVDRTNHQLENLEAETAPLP
Sequence (P41143 whole entry, looked up): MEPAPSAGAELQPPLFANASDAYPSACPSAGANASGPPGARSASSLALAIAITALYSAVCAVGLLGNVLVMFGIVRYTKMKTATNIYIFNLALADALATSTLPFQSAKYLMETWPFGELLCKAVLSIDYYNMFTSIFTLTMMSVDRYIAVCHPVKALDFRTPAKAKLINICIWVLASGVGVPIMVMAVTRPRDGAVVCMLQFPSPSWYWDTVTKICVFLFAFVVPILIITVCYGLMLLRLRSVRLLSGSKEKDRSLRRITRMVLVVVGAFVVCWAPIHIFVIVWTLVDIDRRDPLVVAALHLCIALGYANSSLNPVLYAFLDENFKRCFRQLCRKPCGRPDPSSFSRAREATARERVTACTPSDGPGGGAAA
EXPERIMENTAL PROTOCOL: OPRM1-OPRD1 heterodimer agonist potency – cell-based, luminescence, counter-screen for MC4R biased agonist project, dose response (AID 602264)
CONDITIONS: cell-based OPRM1-OPRD1 heterodimerization
Activity calls are given as the source filed them. How the calls were made is not given here.
// reported EC50 per item

Task: State its EC50: Cc1cc(C)nc(Nc2nc(C(N)Cc3ccc(C(F)(F)F)cc3)cs2)n1 (stereo not given)
Result: > 92.5 µM (inactive)

***
Task: State its EC50: "N#C/C(=C\c1ccc(-c2ccc(F)cc2)o1)C(=O)Nc1nc(-c2cccs2)cs1"
Result: > 64.6 µM (inactive)

Task: State its EC50: "CN(C)CCCN(C(=O)c1cc2cc([N+](=O)[O-])ccc2s1)c1nc2cc3c(cc2s1)OCCO3"
Result: > 92.5 µM (inactive)

Task: State its EC50: "CCN1C(=O)/C(=C2/Sc3ccc(OC)cc3N2C)SC1=Nc1cccc(O)c1"
Result: > 92.5 µM (inactive)

Task: State its EC50: "CCCCCCCCNS(=O)(=O)CCNCCc1ccccc1"
Result: > 92.4 µM (inactive)

Task: State its EC50: "COc1ccc(-c2cc(NC(C)=O)c3ncc(-c4ccc(F)cc4)n3c2)cc1OC"
Result: > 64.6 µM (inactive)

Task: State its EC50: "Nc1ccc(C2(c3ccc(N)cc3)c3ccccc3-c3ccccc32)cc1"
Result: > 92.5 µM (inactive)

Task: State its EC50: "COc1cc(NC(=O)COc2ccccc2[N+](=O)[O-])ccc1NC(=O)c1cccs1"
Result: > 92.5 µM (inactive)

Task: State its EC50: "COc1ccccc1-c1cc(NC(C)=O)c2ncc(-c3cccc(C(C)=O)c3)n2c1"
Result: > 64.6 µM (inactive)

Task: State its EC50: NC(Cc1ccc(C(F)(F)F)cc1)c1csc(NC(=O)Nc2ccccc2Cl)n1 (stereo not given)
Result: > 64.6 µM (inactive)

----------
// reported EC50 per item
TEST TARGET: Mu-type opioid receptor (Homo sapiens) + Delta-type opioid receptor (Homo sapiens) (UniProt P35372+P41143)
EXPERIMENTAL PROTOCOL: OPRM1-OPRD1 heterodimer agonist potency – cell-based, luminescence, counter-screen for MC4R biased agonist project, dose response (AID 602264)
CONDITIONS: cell-based OPRM1-OPRD1 heterodimerization
Activity calls are given as the source filed them. No rule for the calls is given here.

Task: State its EC50: CC(C)CC(N)c1csc(Nc2ccc(C(F)(F)F)cn2)n1 (stereo not given)
Result: > 92.5 µM (inactive)

Task: State its EC50: "Cc1ccc(NC(=S)NC(=O)c2ccc(-c3ccc(Cl)cc3)o2)c(O)c1"
Result: > 64.6 µM (inactive)

Task: State its EC50: "COc1cccc(-c2cnc3c(NC(C)=O)cc(-c4ccsc4)cn23)c1"
Result: > 92.5 µM (inactive)

***
Task: State its EC50: "COc1ccccc1-c1cc(NC=O)c2ncc(-c3cccc(C(F)(F)F)c3)n2c1"
Result: > 64.6 µM (inactive)

Task: State its EC50: "Cc1ccc2sc(N(CCCN(C)C)C(=O)CN3C(=O)c4ccccc4C3=O)nc2c1C"
Result: > 64.6 µM (inactive)

----------
// reported EC50 per item
TEST TARGET: Mu-type opioid receptor (Homo sapiens) + Delta-type opioid receptor (Homo sapiens) (UniProt P35372+P41143)
EXPERIMENTAL PROTOCOL: OPRM1-OPRD1 heterodimer agonist potency – cell-based, luminescence, counter-screen for MC4R biased agonist project, dose response (AID 602264)
CONDITIONS: cell-based OPRM1-OPRD1 heterodimerization
Active and inactive are the calls of the source. How the calls were made is not given here.

Worked set:
Task: State its EC50: "CC(=O)c1cccc(-c2cnc3c(NC=O)cc(-c4ccc(N(C)C)cc4)cn23)c1"
Result: > 64.6 µM (inactive)

Task: State its EC50: "O=C(Nc1cccc(NC(=S)NC(=O)c2cccs2)c1)c1ccccc1"
Result: > 92.5 µM (inactive)

***
Task: State its EC50: "O=C(N/N=C/c1ccc(OCc2ccccc2)cc1)c1cccs1"
Result: > 92.5 µM (inactive)

Task: State its EC50: "CC1(C)Oc2ccc3ccc(=O)oc3c2/C(=C/Nc2ccc(O)cc2)C1=O"
Result: > 64.6 µM (inactive)

Task: State its EC50: OC(CNCCc1ccc(C(F)(F)F)cc1)COC(c1ccccc1)c1ccccc1 (stereo not given)
Result: > 64.6 µM (inactive)

Task: State its EC50: "Nc1c(-c2cccs2)cnn1-c1nc(-c2ccc(Cl)cc2Cl)cs1"
Result: > 64.6 µM (inactive)

Task: State its EC50: "CCOc1ccc(Cn2c3ccc(OC)cc3c3nc4ccccc4nc32)cc1OC"
Result: > 64.6 µM (inactive)

Task: State its EC50: "N#C/C(=C\c1cn(CCOc2ccccc2)c2ccccc12)C(=O)NCc1ccco1"
Result: > 92.5 µM (inactive)

Task: State its EC50: "Cc1c(CN2CCC(CO)(CCOc3ccccc3)CC2)[nH]c2c(Cl)cccc12"
Result: > 92.5 µM (inactive)

Task: State its EC50: "COc1ccc(-c2cnc3c(NC(C)=O)cc(-c4cc(F)ccc4OC)cn23)cc1OC"
Result: > 64.6 µM (inactive)

Origin of values: PubChem BioAssay AID602264
